- Tested on: OVCAR-3 ovarian
- protocol-summary: NCI-60 one-dose screen, 48 h (100 = growth as untreated, 0 = no growth, -100 = all killed)
- condition-context: 10 µM unless noted
About 83,000 compounds went through this panel and 20% of them were active in at least one assay; those are over-represented in the sample as a whole.

| molecule | growth (%) |
| --- | --- |
| COc1ccc(Nc2[nH]n(C3=Nc4ccccc4Sc4ccccc43)c(=O)c2C#N)cc1 | 52.4 |
| COc1cccc(OC)c1OC(=O)c1ccccc1 | 123 |
| O=C1C(Cl)=C(NCCCN2CCOCC2)C(=O)c2ccccc21 | 96.4 |
| O/N=C/c1cccs1 | 119 |
| Cc1cccc2c(=O)c3c(sc12)c(NCCCN)nc1ccccc13 | 39.4 |
| CCCCCCCCCCCCSC1=CC(=O)C=CC1=O | 73.2 |
